Provide the recorded deltaG for the entries that follow.
tested on: Transthyretin (Homo sapiens), P02766 [V50M]; experiment: Binding affinity to TTR V30M mutant (unknown origin) expressed in Escherichia coli assessed as gibbs free energy change by ITC assay

The reported value for "O=C1C[C@@H](c2ccc(O)cc2)Oc2cc(O)cc(O)c21" in terms of deltaG is -7.9 kcal/mol

The reported value for O=C1CC(c2cc(Cl)cc(Cl)c2)Oc2cc(O)cc(O)c21 (stereo unspecified) in terms of deltaG is -13.6 kcal/mol

The reported value for O=C1CC(c2cc(Cl)c(O)c(Cl)c2)Oc2cc(O)cc(O)c21 (stereo unspecified) in terms of deltaG is -10.7 kcal/mol

The reported value for O=C1CC(c2cc(Cl)c(O)c(Cl)c2)Oc2cccc(O)c21 (stereo unspecified) in terms of deltaG is -10.9 kcal/mol

The reported value for O=C1CC(c2cc(Cl)c(O)c(Cl)c2)Oc2cc(O)ccc21 (stereo unspecified) in terms of deltaG is -10.4 kcal/mol

The reported value for O=C1CC(c2ccc(O)c(Cl)c2)Oc2cc(O)cc(O)c21 (stereo unspecified) in terms of deltaG is -8.73 kcal/mol

---

test: Ratio of drug concentration in Sprague-Dawley rat eye ball to plasma at 1 mg/kg, po after 8 hrs by LC-MS/MS analysis; format: ADME, organism-based
MEASUREMENT_KIND: Kp at 8 h
Please state the value as a number alone, without comment.

The reported value for O=C1CC(c2cc(Cl)c(O)c(Cl)c2)Oc2cc(O)cc(O)c21 (stereo unspecified) in terms of Kp at 8 h is 0.139

---

system: Transthyretin (Homo sapiens), P02766 [V50M]; experiment: Inhibition of acid mediated TTR V30M mutant aggregation (unknown origin) expressed in Escherichia coli preincubated for 30 mins followed by acid stimulation and measured after 96 hrs by fluorescence spectrophotometer analysis; conditions: time 96.5 hrs
MEASUREMENT_KIND: IC50 (µM)
API: value field is a number in µM; no unit string.

The reported value for O=C1CC(c2ccc(Cl)cc2)Oc2cc(O)cc(O)c21 (stereo unspecified) in terms of IC50 is 15

The reported value for O=C1CC(c2ccc(O)c(Cl)c2)Oc2cc(O)cc(O)c21 (stereo unspecified) in terms of IC50 is 5.3

The reported value for O=C1CC(c2ccc(O)c(Cl)c2)Oc2cc(O)ccc21 (stereo unspecified) in terms of IC50 is 6

The reported value for O=C1C[C@@H](c2ccc(O)cc2)Oc2cc(O)cc(O)c21 [NARINGENIN] in terms of IC50 is 12

The reported value for O=C1CC(c2cc(Cl)c(O)c(Cl)c2)Oc2cc(O)ccc21 (stereo unspecified) in terms of IC50 is 4.6

The reported value for O=C1CC(c2cc(Cl)c(O)c(Cl)c2)Oc2cc(O)cc(O)c21 (stereo unspecified) in terms of IC50 is 3.7

The reported value for O=C1CC(c2cc(Cl)c(O)c(Cl)c2)Oc2ccc(O)cc21 (stereo unspecified) in terms of IC50 is 4.3

The reported value for O=C1CC(c2ccc(O)c(Cl)c2)Oc2ccc(O)cc21 (stereo unspecified) in terms of IC50 is 5.9

The reported value for O=C1CC(c2cc(Cl)c(O)c(Cl)c2)Oc2cccc(O)c21 (stereo unspecified) in terms of IC50 is 3.6

The reported value for O=C1CC(c2cc(Cl)cc(Cl)c2)Oc2cc(O)cc(O)c21 (stereo unspecified) in terms of IC50 is 3.8

The reported value for O=C1CC(c2ccc(O)c(Cl)c2)Oc2cccc(O)c21 (stereo unspecified) in terms of IC50 is 7.2
